Hello, the source for this data is PubChem BioAssay (EPA / NIEHS), in case you need it.

Read-out: JUN Transcription Factor, JUN (gene 3725)
runDescription: LTEA_HepaRG_JUN: Life Technologies and Expression Analysis (LTEA) Assay for JUN Transcription Factor using HepaRG (AID 2283513)
conditionsUsed: mRNA level, 48 h; actives raise or lower the signal
Active and inactive are the calls of the source. How the source made its calls: active means hit-call score of the fitted dose curve at least 0.9, where 1 is the maximum; inactive means score below 0.9.
parameterMeasured: outcome

[[record]]
compound = "ClC(Cl)(Cl)c1ccccc1"
recordedvalue = "inactive"

[[record]]
compound = "OCC1CO1 (configuration not stated)"
recordedvalue = "inactive"

[[record]]
compound = "CCOP(=S)(Oc1ccc([N+](=O)[O-])cc1)c1ccccc1 (configuration not stated)"
recordedvalue = "inactive"

[[record]]
compound = "CCCCCCCc1ccc(O)cc1"
recordedvalue = "inactive"

[[record]]
compound = "ClC1=C(Cl)C2(Cl)C3C(Cl)C(Cl)CC3C1(Cl)C2(Cl)Cl (configuration not stated)"
recordedvalue = "inactive"

[[record]]
compound = "O=C(O)C(Cl)Cl"
recordedvalue = "inactive"

[[record]]
compound = "CCOP(=S)(OCC)SCSCC"
recordedvalue = "inactive"

[[record]]
compound = "Nc1ccc(Cl)cc1"
recordedvalue = "inactive"

[[record]]
compound = "ClC(Cl)c1ccccc1"
recordedvalue = "inactive"

[[record]]
compound = "c1ccc(OP(Oc2ccccc2)Oc2ccccc2)cc1"
recordedvalue = "inactive"

[[record]]
compound = "CCCCN(CCCC)N=O"
recordedvalue = "inactive"

[[record]]
compound = "CC(C)(C)c1ccc(O)cc1"
recordedvalue = "inactive"

[[record]]
compound = "Nc1cc2c3c(c1)C(c1ccccc1)=N[C@@H](NC(=O)c1cccnc1)C(=O)N3CC2"
recordedvalue = "inactive"

[[record]]
compound = "c1nc[nH]n1"
recordedvalue = "inactive"

[[record]]
compound = "CCC1(c2ccccc2)C(=O)N=C(O)NC1=O (configuration not stated)"
recordedvalue = "inactive"

[[record]]
compound = "CCC(C)(C)c1ccc(O)cc1"
recordedvalue = "inactive"

[[record]]
compound = "CCOC(=O)c1ccccc1C(=O)OCC"
recordedvalue = "inactive"

[[record]]
compound = "CC(C)(C)OOC(C)(C)C"
recordedvalue = "inactive"

[[record]]
compound = "Cc1ccc(N)cc1N"
recordedvalue = "inactive"

[[record]]
compound = "[N-]=[N+]=[N-]"
recordedvalue = "inactive"

[[record]]
compound = "CCOS(=O)(=O)OCC"
recordedvalue = "inactive"

[[record]]
compound = "CC(Cl)(Cl)C(=O)O"
recordedvalue = "inactive"

[[record]]
compound = "CCCN(CCC)c1c([N+](=O)[O-])cc(C(C)C)cc1[N+](=O)[O-]"
recordedvalue = "inactive"

[[record]]
compound = "CC(Cc1ccc(OCC(=O)O)cc1)NCC(O)c1csc(C(F)(F)F)n1 (configuration not stated)"
recordedvalue = "inactive"

[[record]]
compound = "Cc1cccc(N)c1"
recordedvalue = "inactive"

[[record]]
compound = "CCCCN(CCCC)SN(C)C(=O)Oc1cccc2c1OC(C)(C)C2"
recordedvalue = "inactive"

[[record]]
compound = "Nc1ccc2ccccc2c1"
recordedvalue = "inactive"


* * *

runDescription: CCTE_Padilla_ZF_Score.Tail: CCTE's 144 Hour Post-fertilization zebrafish Assay Score for Tail Malformation, Padilla Lab (AID 2284414)
The source made the active and inactive calls. How the source made its calls: active means hit-call score of the fitted dose curve at least 0.9, where 1 is the maximum; inactive means score below 0.9.
Labels: active, inactive

[[record]]
molecule = "COC(=O)C(F)(F)C(F)(F)OC(F)(C(F)(F)F)C(F)(F)OC(F)=C(F)F (configuration not stated)"
assignedlabel = "inactive"

[[record]]
molecule = "O=C(O)C(F)(F)OC(F)(F)C(F)(F)OC(F)(F)C(=O)O"
assignedlabel = "inactive"

[[record]]
molecule = "FC(F)(F)C(F)(C(F)(F)F)C(F)(F)C(F)(F)CC1CO1 (configuration not stated)"
assignedlabel = "inactive"

[[record]]
molecule = "C=CC(=O)OCC(F)(F)C(F)F"
assignedlabel = "inactive"

[[record]]
molecule = "OCC(F)(F)OC(F)(F)C(F)(F)OC(F)(F)C(F)(F)OC(F)(F)F"
assignedlabel = "active"

[[record]]
molecule = "O=C(O)C(F)(F)OC(F)(F)C(F)(F)OC(F)(F)F"
assignedlabel = "inactive"

[[record]]
molecule = "O=C(O)C(F)(F)C(F)(F)C(=O)O"
assignedlabel = "inactive"

[[record]]
molecule = "O=C(O)C=CC(F)(C(F)(F)F)C(F)(F)F"
assignedlabel = "inactive"

[[record]]
molecule = "CC(O)C(F)(F)C(F)(F)F (configuration not stated)"
assignedlabel = "inactive"

[[record]]
molecule = "NC(=O)C(F)(F)C(F)(F)F"
assignedlabel = "inactive"

[[record]]
molecule = "O=C(O)C(F)(OC(F)(F)C(F)(F)C(F)(F)F)C(F)(F)F (configuration not stated)"
assignedlabel = "inactive"

[[record]]
molecule = "OCC(F)(F)OC(F)(F)C(F)(F)OC(F)(F)CO"
assignedlabel = "inactive"

